Target Entity: binding between IKKβ and full-length Regnase-1 (FL_Reg1) (Homo sapiens, UniProt Q5D1E8)
Construct: made in house; host or cells: Expi293 cells
Sequence (Q5D1E8 whole entry): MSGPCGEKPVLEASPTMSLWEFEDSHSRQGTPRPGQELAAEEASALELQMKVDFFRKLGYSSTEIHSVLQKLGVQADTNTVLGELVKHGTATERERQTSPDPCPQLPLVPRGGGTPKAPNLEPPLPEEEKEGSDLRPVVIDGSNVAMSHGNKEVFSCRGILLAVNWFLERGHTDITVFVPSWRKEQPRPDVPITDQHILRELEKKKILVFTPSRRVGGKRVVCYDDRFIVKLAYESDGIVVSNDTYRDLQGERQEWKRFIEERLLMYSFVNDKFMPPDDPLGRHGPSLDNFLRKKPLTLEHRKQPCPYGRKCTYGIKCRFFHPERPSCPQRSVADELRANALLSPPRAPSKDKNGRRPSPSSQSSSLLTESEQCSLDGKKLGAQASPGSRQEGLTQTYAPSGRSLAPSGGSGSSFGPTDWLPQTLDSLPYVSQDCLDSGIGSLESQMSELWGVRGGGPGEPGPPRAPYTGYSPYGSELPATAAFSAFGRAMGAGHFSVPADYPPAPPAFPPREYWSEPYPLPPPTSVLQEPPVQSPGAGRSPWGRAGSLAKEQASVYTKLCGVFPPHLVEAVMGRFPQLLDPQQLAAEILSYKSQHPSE
Test: Inhibition of kinase-Regnase-1 binding by the compounds (AlphaScreen), IKKβ
Settings: Table 14; binding between IKKβ and Regnase-1; read-out: Binding inhibition FL_Reg1, 50% inhibition concentration (IKKβ)
Residues, ends and D or L forms follow the SMILES beside them.
Observed Property: pIC50
The value called pIC50 is obtained by taking minus log10 of the concentration in mol/L.

Notebook: pull reported pIC50 for binding between IKKβ and full-length Regnase-1 (FL_Reg1) (Homo sapiens, UniProt Q5D1E8), entry CC[C@H](C)[C@@H]1NC(=O)[C@H](Cc2c[nH]c3ccccc23)NC(=O)[C@H](C)N(C)C(=O)C[C@@H](C(=O)N2CCCC2)NC(=O)[C@H](CCC(=O)O)NC(=O)[C@H](CC(N)=O)NC(=O)[C@H](Cc2c[nH]c3ccccc23)NC(=O)[C@H](Cc2ccccc2)NC(=O)[C@H](CC(=O)O)NC(=O)[C@H](Cc2c[nH]c3ccccc23)NC1=O [PP24] (HELM PEPTIDE1{[meA].W.I.W.D.F.W.N.E.D.[C1CCN([*:1])C1]}$PEPTIDE1,PEPTIDE1,1:R1-10:R3$$$V2.0)
5.06

----------
Target Entity: ΔCTD_Reg1 (amino acids 1 to 546 of human Regnase-1) phosphorylation by TBK1 (Homo sapiens, UniProt Q5D1E8)
Construct: made in house; host or cells: Expi293 cells
Sequence (Q5D1E8 1-546, stated change not applied): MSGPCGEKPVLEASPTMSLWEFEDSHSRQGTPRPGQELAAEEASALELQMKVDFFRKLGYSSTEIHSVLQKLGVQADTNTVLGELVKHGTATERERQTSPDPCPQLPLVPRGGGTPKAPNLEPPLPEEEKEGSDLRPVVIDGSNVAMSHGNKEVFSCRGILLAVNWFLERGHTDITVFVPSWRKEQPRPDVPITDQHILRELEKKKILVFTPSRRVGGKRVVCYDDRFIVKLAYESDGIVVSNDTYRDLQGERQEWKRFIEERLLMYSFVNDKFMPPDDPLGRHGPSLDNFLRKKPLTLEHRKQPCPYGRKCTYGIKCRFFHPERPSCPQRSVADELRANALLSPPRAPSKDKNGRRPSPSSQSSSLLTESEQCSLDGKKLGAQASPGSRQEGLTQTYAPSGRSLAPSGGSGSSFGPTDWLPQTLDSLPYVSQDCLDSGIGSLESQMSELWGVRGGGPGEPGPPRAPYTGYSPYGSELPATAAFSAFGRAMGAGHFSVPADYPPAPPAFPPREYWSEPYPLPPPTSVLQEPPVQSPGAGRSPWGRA
Test: Regnase-1 phosphorylation inhibition by compounds (AlphaScreen), TBK1, CTD-deficient Regnase-1
Type: biochemical
Settings: Table 11; 2 nM Regnase-1; AlphaScreen; read-out: 50% inhibition concentration, Regnase-1 phosphorylation, ΔCTD_Reg1, TBK1
Residues, ends and D or L forms follow the SMILES beside them.
Observed Property: pIC50
pIC50 here: minus log base 10 of the concentration, concentration in moles per litre.

Could you share which pIC50 value was measured for CC[C@H](C)[C@@H]1NC(=O)[C@H](CC(N)=O)NC(=O)[C@H](Cc2ccc(O)cc2)NC(=O)[C@H](Cc2c[nH]c3ccccc23)NC(=O)[C@H](C)NC(=O)[C@H](CC(N)=O)NC(=O)[C@H](CO)NC(=O)[C@H](Cc2c[nH]cn2)NC(=O)[C@H](C)N(C)C(=O)C[C@@H](C(=O)N2CCCC2)NC(=O)[C@H](Cc2c[nH]c3ccccc23)NC1=O [PP5] (HELM PEPTIDE1{[meA].H.S.N.A.W.Y.N.I.W.D.[C1CCN([*:1])C1]}$PEPTIDE1,PEPTIDE1,1:R1-11:R3$$$V2.0) ?
4.72

----------
Target Entity: ΔCTD_Reg1 (amino acids 1 to 546 of human Regnase-1) phosphorylation by IKKβ (Homo sapiens, UniProt Q5D1E8)
Construct: made in house; host or cells: Expi293 cells
Test: Regnase-1 phosphorylation inhibition by compounds (AlphaScreen), IKKβ, CTD-deficient Regnase-1
Assay type: biochemical
Settings: Table 14; phosphorylation by IKKβ; read-out: Phosphorylation inhibition ΔCTD_Reg1, 50% inhibition concentration (IKKβ)
Method: […] Phosphorylated Regnase-1 was detected by the AlphaScreen system. After each of the above-mentioned phosphorylated Regnase-1 antibodies was added and reacted at room temperature for one hour, anti-FLAG AlphaLISA Acceptor Beads (manufactured by PerkinElmer) and Protein A AlphaScreen Donor Beads (manufactured by PerkinElmer) were added, and EnVision (manufactured by PerkinElmer) was used to measure the excited luminescence. […]
Residues, ends and D or L forms follow the SMILES beside them.
Observed Property: IC50

Item CC[C@H](C)[C@@H]1NC(=O)[C@H](Cc2c[nH]c3ccccc23)NC(=O)[C@@H](Cc2ccccc2)NC(=O)[C@H](CCCCN)NC(=O)[C@H](C)N(C)C(=O)C[C@@H](C(=O)N2CCCC2)NC(=O)[C@H](CCC(=O)O)NC(=O)[C@H](Cc2ccccc2)NC(=O)[C@H](CO)NC(=O)[C@H](Cc2c[nH]cn2)NC(=O)[C@H](Cc2c[nH]cn2)NC1=O [PP20] (HELM PEPTIDE1{[meA].K.[dF].W.I.H.H.S.F.E.D.[C1CCN([*:1])C1]}$PEPTIDE1,PEPTIDE1,1:R1-11:R3$$$V2.0) has what recorded IC50?
> 62.1 µM
